- SYSTEM NAME: TF/FVIIa (Homo sapiens, UniProt P08709)
- Construct: Coagulation factor VIIa initiates the extrinsic part of the coagulation cascade
- Sequence (P08709 213-466 limits assumed): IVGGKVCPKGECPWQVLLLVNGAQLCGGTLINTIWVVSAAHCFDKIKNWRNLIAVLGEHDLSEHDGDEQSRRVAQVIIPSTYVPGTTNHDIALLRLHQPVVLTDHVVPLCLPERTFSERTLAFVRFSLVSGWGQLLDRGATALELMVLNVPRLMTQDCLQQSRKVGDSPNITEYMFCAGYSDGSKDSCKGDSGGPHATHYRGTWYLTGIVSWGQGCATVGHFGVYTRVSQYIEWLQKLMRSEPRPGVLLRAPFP
- Sequence (P08709 61-212 limits assumed): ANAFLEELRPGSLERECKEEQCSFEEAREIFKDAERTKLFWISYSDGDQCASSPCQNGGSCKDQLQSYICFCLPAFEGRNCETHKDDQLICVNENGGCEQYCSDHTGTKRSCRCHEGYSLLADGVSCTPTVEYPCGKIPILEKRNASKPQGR
- Sequence (P13726 33-295 partner): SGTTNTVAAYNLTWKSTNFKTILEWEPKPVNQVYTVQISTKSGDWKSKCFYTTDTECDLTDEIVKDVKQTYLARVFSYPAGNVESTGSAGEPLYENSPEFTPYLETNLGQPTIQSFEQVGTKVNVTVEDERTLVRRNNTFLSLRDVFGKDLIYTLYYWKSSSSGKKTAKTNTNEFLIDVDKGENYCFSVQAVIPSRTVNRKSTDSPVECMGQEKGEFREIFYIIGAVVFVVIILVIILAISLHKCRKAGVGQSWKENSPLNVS
- MEASUREMENT DESCRIPTION: TF/FVIIa inhibition (TF/FVIIa-IC50)
// reported IC50 per item
Quick reminder: number only, in nM, skip the unit.

Solved entries:
SMILES RECORD: O=C(Nc1ccc(Cl)cc1)NN(C(=O)Nc1ccc(N2CCCCC2=O)cc1)c1ccc(Cl)cc1
IC50, nM: 340
//
SMILES RECORD: O=C(Nc1ccc(Cl)cc1)NN(C(=O)Nc1ccc(N2CCCCC2=O)cc1)c1ccccc1
IC50, nM: 91

Now, please, on to the next compound.
Challenge: Value lookup for IC50; key = `CS(=O)(=O)c1ccccc1-c1ccc(NC(=O)N(NC(=O)Nc2ccc(Cl)cc2)c2ccccc2)cc1`
Response given: 190

Attribution: patent US6943179B2
